# Tested System: Human plasma kallikrein (Homo sapiens (Human))
# Sequence (P03952 391-638): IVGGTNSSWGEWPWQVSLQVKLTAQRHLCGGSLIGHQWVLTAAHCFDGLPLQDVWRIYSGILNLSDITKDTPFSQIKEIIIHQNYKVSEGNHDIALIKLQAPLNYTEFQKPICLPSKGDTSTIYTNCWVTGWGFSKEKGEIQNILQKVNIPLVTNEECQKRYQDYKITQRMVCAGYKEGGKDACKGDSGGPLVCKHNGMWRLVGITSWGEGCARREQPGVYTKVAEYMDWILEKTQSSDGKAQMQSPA
# Sequence (P03952 20-390 partner): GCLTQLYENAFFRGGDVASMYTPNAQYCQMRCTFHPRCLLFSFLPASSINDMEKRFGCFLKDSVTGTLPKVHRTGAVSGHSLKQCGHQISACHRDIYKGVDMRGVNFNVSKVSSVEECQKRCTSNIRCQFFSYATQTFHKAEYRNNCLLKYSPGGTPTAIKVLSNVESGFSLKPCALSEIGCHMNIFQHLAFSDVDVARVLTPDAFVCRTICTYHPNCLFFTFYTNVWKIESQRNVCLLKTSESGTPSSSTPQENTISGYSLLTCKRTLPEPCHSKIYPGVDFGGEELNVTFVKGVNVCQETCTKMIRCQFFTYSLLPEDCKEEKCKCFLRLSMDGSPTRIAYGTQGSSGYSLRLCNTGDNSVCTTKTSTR
# Assay Method Text: Kallikrein Assay
# Run Parameters: purified Human plasma kallikrein 0.5 nM, Acetyl-K-P-R-AFC, pH 7.4; Ki from IC50 by Cheng Prusoff
Quantity Measured: log10 of Ki (log10 of the value in µM)
Each number you see is log10 of Ki, and the unit inside the log is µM.

Molecule	log10 of Ki
Cc1cc2cc(C(=O)N[C@@H](Cc3ccccc3)C(=O)N3CCC[C@@]4(C3)OC(=O)Nc3ccc(Cl)cc34)ccc2[nH]1 [Example 250]	-1.88
COC(=O)Nc1ccc(C(=O)N[C@@H](CC(=O)NCC2CC2)C(=O)N2CCC[C@@]3(C2)OC(=O)Nc2ccc(Cl)cc23)cc1 [Example 99]	-1.75
COC(=O)Nc1ccc(C(=O)N[C@@H](Cc2ccc(-c3cc[nH]c3)cc2)C(=O)N2CC[C@@]3(C2)OC(=O)Nc2ccc(Cl)cc23)cc1 [Example 79]	-1.84
COC(=O)Nc1ccc(C(=O)N[C@@H](Cc2ccccc2)C(=O)N2CC[C@@]3(C2)OC(=O)Nc2ccc(C)cc23)cc1 [Example 14b]	-1.32

Now take the following molecule into account.
# log10 of Ki lookup, item COC(=O)Nc1ccc(C(=O)N[C@@H](C[C@H](C)OC)C(=O)N2CCC[C@@]3(C2)OC(=O)Nc2ccc(Cl)c(F)c23)cc1 [Example 118A]
-2.75

* * *

# Tested System: human Factor XIa (Homo sapiens (Human))
# Sequence (P03951 388-625): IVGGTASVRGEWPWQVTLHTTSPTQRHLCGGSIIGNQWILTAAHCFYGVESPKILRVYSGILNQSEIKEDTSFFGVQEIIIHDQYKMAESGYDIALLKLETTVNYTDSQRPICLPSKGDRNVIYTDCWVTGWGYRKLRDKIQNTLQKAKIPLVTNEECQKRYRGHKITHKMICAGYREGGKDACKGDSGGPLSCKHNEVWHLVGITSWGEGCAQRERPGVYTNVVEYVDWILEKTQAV
# Sequence (P03951 19-387 partner): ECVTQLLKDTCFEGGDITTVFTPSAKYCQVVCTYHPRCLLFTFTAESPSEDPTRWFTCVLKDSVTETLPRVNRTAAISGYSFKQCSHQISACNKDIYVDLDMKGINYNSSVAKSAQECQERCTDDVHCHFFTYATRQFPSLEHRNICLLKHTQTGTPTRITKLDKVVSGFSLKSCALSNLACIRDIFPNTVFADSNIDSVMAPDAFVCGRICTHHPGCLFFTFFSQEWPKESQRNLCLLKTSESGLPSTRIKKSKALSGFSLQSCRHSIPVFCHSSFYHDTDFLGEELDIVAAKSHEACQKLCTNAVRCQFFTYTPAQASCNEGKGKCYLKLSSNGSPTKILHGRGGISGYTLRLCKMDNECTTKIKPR
# Assay Method Text: Factor XIa Assay
# Type: biochemical
# Run Parameters: read-out: FXIa Ki
Doc: threshold 0.07 µM (exclusive). Items with Ki beneath it return Y; others return N.

Compound	Assigned Class
COCCOC(=O)Nc1ccc(C(=O)N[C@@H](Cc2ccccc2)C(=O)N2CCC3(C2)OC(=O)Nc2ccc(Cl)cc23)cn1 (stereo partly shown)	N
O=C1Nc2ccc(Cl)c(F)c2[C@@]2(CCCN(C(=O)[C@H](CC3CC3)NC(=O)c3ccc4[nH]nc(O)c4c3)C2)O1	Y
O=C1Nc2ccc(Cl)cc2C2(CCN(C(=O)[C@H](Cc3ccccc3)NC(=O)c3ccc4oc(=O)[nH]c4c3)C2)O1 (stereo partly shown)	N

I'd appreciate it if you could check whether O=C1Nc2ccc(Cl)cc2C2(CCN(C(=O)[C@H](Cc3ccccc3)NC(=O)c3ccc(O)c(F)c3)C2)O1 (stereo partly shown) has Ki smaller than 0.07 µM.
N

Quick check: Ki of "COC(=O)NC12CCC(C(=O)N[C@@H](Cc3ccccc3)C(=O)N3CCC[C@@]4(C3)OC(=O)Nc3ccc(Cl)c(F)c34)(CC1)CC2" under 0.07 µM?
N

is_below(Ki, 0.07 µM) for O=C1CSc2cc(C(=O)N[C@@H](Cc3ccccc3)C(=O)N3CCC4(C3)OC(=O)Nc3ccc(Cl)cc34)ccc2N1 (stereo partly shown) ?
Y

Lab log: compare recorded Ki with 0.07 µM; is it strictly lower for O=C1CCCc2cc(C(=O)N[C@@H](Cc3ccccc3)C(=O)N3CCC4(C3)OC(=O)Nc3ccc(Cl)cc34)ccc2N1 (stereo partly shown) ?
N

Given O=C1Nc2ccc(Cl)cc2C2(CCN(C(=O)[C@H](Cc3ccccc3)NC(=O)c3ccc4c(c3)S(=O)(=O)N=CN4)C2)O1 (stereo partly shown) , is recorded Ki strictly lower than 0.07 µM?
N

Determine if "O=C1Nc2ccc(Cl)c(F)c2[C@@]2(CCCN(C(=O)[C@H](Cc3ccccc3)NC(=O)c3ccc(-n4cn[nH]c4=O)cc3)C2)O1" shows Ki strictly lower than 0.07 µM.
Y

Dear colleague, could you confirm whether Ki of O=C1Nc2ccc(Cl)cc2C2(CCN(C(=O)[C@H](Cc3ccccc3)NC(=O)c3ccc(C(=O)O)cc3)C2)O1 (single isomer, unassigned) [Example 140b] falls below 0.07 µM? Thanks.
N
